Target: GLS1 (Homo sapiens (Human), UniProt O94925)
Sequence (O94925 63-669): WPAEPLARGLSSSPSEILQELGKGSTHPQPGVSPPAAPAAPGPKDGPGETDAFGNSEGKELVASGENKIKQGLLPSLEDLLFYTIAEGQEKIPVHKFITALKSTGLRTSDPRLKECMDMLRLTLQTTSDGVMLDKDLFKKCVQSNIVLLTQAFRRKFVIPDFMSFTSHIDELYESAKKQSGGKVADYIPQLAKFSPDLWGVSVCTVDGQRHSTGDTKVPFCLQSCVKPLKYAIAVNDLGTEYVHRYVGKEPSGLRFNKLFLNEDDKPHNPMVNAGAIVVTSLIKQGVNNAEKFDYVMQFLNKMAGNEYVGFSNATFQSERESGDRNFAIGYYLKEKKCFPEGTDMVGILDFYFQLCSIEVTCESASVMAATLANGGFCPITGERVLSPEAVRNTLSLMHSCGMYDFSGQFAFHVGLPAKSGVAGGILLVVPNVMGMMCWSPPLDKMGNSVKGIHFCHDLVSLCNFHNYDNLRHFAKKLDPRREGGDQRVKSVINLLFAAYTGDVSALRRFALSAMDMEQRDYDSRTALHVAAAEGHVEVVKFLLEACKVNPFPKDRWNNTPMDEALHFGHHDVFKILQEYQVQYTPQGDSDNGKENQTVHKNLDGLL
Experiment: GLS Enzyme Potency Assay (Glutamate Oxidase/AmplexRed coupled assay)
Format: biochemical
Settings: 6His tagged GLS protein (amino acids 63-669), recombinant; read-out: Assay a) enz IC50

molecule: COC(C(=O)Nc1nnc(N[C@@H]2CCN(c3ccc(F)nn3)C2)s1)c1cccc(N2CC(F)C2)c1 (single isomer, unassigned) [Example 27]
IC50: 149 nM
//
molecule: CO[C@H](C(=O)Nc1nnc(N[C@@H]2CCN(c3nccnn3)C2)s1)c1cccc(N2CC(F)C2)c1 (single isomer, unassigned) [15(b)]
IC50: 1310 nM
//
molecule: COc1cc(OC)cc([C@@H](OC)C(=O)Nc2nnc(N[C@@H]3CCN(c4cccnn4)C3)s2)c1
IC50: 48.2 nM
